System: A549
Test method notes: NCI tumour cell line growth inhibition, 48 h
Activity calls are given as the source filed them. Rule as the data show it: active = GI50 up to about 1.1 µM and inactive = higher.
Labels: active, inactive

* Cc1ccc2c(C(=O)c3c(C)n(CCN4CCOCC4)c4ccccc34)cccc2c1 | inactive
* COC(=O)C1=C(C(=O)OC)SC2(S1)C1=C(CCC1)SC(C(=O)OC)=C2C(=O)OC | inactive
* CC1CN(c2ccc(Cl)cc2)CC(C)(C)OC(=O)O1 (centres undefined) | inactive
* C/C(=N\NC(=N)N)C(CN1CCCCC1)C(c1ccccc1)c1c(O)c2ccccc2oc1=O (centres undefined) | inactive
* CC(C)OCC1CC(CC(=O)Nc2nncs2)C(=O)O1 (centres undefined) | inactive
* Cn1c(=S)c2nc(SCCN3C(=O)c4ccccc4C3=O)[nH]c2n(C)c1=O | inactive
* C/C(=N\O)C1CC2C=C(C#N)C1N(Cc1ccccc1)C2 (centres undefined) | inactive
* CO[C@@H]1/C=C\C=C(/C)C(=O)NC2=CC(=O)C(NCCN(C)C)=C(C[C@@H](C)C[C@@H](OC)[C@@H](O)[C@H](C)/C=C(\C)[C@H]1OC(N)=O)C2=O | active
* CCOC(=O)CCC1(C(=O)OC)CCCC1=O (centres undefined) | inactive
